- Assay context: citrate buffer, pH 4.5, aqueous buffer
Metric: solubility

Entry under review: O=C(Nc1c[nH]nc1-c1nc2cc(CN3CCOCC3)ccc2[nH]1)NC1CC1 [free base] . Reported solubility?
~80 mg/mL
